System: T1, recombinant C-terminally truncated RSV (A2 strain) F protein (RSV (A2 strain), UniProt P03420 26-524)
T1 construct: extracellular domain; also called truncated F protein; extracellular domain of the F protein from RSV A2
T1 sequence (P03420 26-109, chain 1 of 2): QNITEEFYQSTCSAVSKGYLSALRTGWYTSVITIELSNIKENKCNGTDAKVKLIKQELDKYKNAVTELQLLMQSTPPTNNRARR
T1 sequence (P03420 137-524, chain 2 of 2): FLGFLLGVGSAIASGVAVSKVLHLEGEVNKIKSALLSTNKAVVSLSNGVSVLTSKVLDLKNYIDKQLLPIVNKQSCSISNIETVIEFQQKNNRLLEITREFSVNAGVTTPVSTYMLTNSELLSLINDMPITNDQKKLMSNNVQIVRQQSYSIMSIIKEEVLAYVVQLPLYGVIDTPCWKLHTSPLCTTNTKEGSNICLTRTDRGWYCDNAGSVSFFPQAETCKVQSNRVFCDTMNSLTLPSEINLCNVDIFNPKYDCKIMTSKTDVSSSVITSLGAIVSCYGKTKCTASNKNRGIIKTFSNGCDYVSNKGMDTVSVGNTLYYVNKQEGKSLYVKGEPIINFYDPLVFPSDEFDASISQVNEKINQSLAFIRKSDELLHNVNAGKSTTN
Assay Explanation: SPR (BIAcore), IgG over immobilised F
Readout: Kd (nM)
Give the value, in units of nM, as a plain number.

Requested field: Kd. Item: A8c7 IgG (antibody, V domains shown) VH: QVTLRESGPALVKPTQTLTLTCTFSGFSLSTAGMSVGWIRQPPGKALEWLADIWWDDKKSYNPSLKDRLTISKDTSKNQVVLKVTNMDPADTATYYCARDMIFNWYFDVWGQGTTVTVSS VL: DIQMTQSPSTLSASVGDRVTITCSPSSRVGYMHWYQQKPGKAPKLLIYDTRYQSSGVPSRFSGSGSGTEFTLTISSLQPDDFATYYCFQGSGYPFTFGGGTKVEIKR 0.21
